- Tested on: HT-1080.hFAP and HT-1080.wt xenografts
- PROCEDURE TEXT: Quantitative biodistribution in HT-1080.hFAP and HT-1080.wt xenografted mice
- Type: in vivo
- EXPERIMENTAL CONDITIONS: 1 h p.i., HT-1080.hFAP and HT-1080.wt xenografts
OBSERVED PROPERTY: Biodistribution Lung (% IA/g)

(A) N#C[C@@H]1CC(F)(F)CN1C(=O)CNC(=O)c1ccnc2ccc(NC(=O)CCC(=O)NCCNC(=O)CC[C@H](C(=O)O)N3CCN4CCN(CC3)CC(=O)[O][61Cu][O]C(=O)C4)cc12 [[^61Cu]Cu-NODAGA-F1]
(B) CN(C(=O)CCC(=O)NCCNC(=O)CC[C@H](C(=O)O)N1CCN2CCN(CC1)CC(=O)[O][61Cu][O]C(=O)C2)c1ccc2nccc(C(=O)NCC(=O)N3CC(F)(F)C[C@H]3C#N)c2c1 [[^61Cu]Cu-NODAGA-F2]
## Task I need your help: which of the pair A , B has higher Biodistribution Lung? Answer with the label corresponding to your selection.
## Result A

* * *

- System: HT-1080.hFAP and HT-1080.wt xenografts
- PROCEDURE TEXT: Quantitative biodistribution in HT-1080.hFAP and HT-1080.wt xenografted mice
- Format: in vivo
- EXPERIMENTAL CONDITIONS: FAP-negative tumor, 1 hour p.i.
OBSERVED PROPERTY: Biodistribution HT-1080.wt (% I.A./g)

## Task Lookup: Biodistribution HT-1080.wt / HT-1080.hFAP and HT-1080.wt xenografts / CN(C(=O)CCC(=O)N1CCN(C(=O)CC[C@H](C(=O)O)N2CCN3CCN(CC2)CC(=O)[O][61Cu][O]C(=O)C3)CC1)c1ccc2nccc(C(=O)NCC(=O)N3CC(F)(F)C[C@H]3C#N)c2c1 [[^61Cu]Cu-NODAGA-F4]
## Result 1.7

## Task Repeat for the following compound: N#C[C@@H]1CC(F)(F)CN1C(=O)CNC(=O)c1ccnc2ccc(NC(=O)CCC(=O)N3CCN(C(=O)CC[C@H](C(=O)O)N4CCN5CCN(CC4)CC(=O)[O][61Cu][O]C(=O)C5)CC3)cc12 [[^61Cu]Cu-NODAGA-F3]
## Result 4.0

(a) N#C[C@@H]1CC(F)(F)CN1C(=O)CNC(=O)c1ccnc2ccc(NC(=O)CCC(=O)NCCNC(=O)CC[C@H](C(=O)O)N3CCN4CCN(CC3)CC(=O)[O][61Cu][O]C(=O)C4)cc12 [[^61Cu]Cu-NODAGA-F1]
(b) CN(C(=O)CCC(=O)NCCNC(=O)CC[C@H](C(=O)O)N1CCN2CCN(CC1)CC(=O)[O][61Cu][O]C(=O)C2)c1ccc2nccc(C(=O)NCC(=O)N3CC(F)(F)C[C@H]3C#N)c2c1 [[^61Cu]Cu-NODAGA-F2]
## Task Given the two records a and b , choose the one whose Biodistribution HT-1080.wt value is lower. Answer with the label corresponding to your selection.
## Result b
(b: 1.4 % I.A./g, a: 4.5 % I.A./g)

* * *

- PROCEDURE TEXT: Pharmacokinetics (biodistribution 1-24 h) in non-tumor bearing mice
- Type: in vivo
- EXPERIMENTAL CONDITIONS: female, BALB/c, mouse, muscle, 200 umol, total radioactivity; 24 hours after injection, ^64Cu; read-out: Biodistribution Muscles
OBSERVED PROPERTY: tissue uptake at 24 h (%ID/g)
Entry rule: numbers only, all in %ID/g.

## Task Find the recorded tissue uptake at 24 h belonging to C[C@@H](O)[C@@H]1NC(=O)[C@H](CCCCN)NC(=O)[C@@H](Cc2c[nH]c3ccccc23)NC(=O)[C@H](Cc2ccc(O)cc2)NC(=O)[C@@H](NC(=O)[C@@H](Cc2ccccc2)NC(=O)CCC(C(=O)O)N2CCN(CC(=O)O)CCN(CC(=O)O)CC2)CSSC[C@@H](C(=O)N[C@H](CO)[C@@H](C)O)NC1=O (single isomer, unassigned) [[^61/^64Cu]Cu-NODAGA-TOC, metal not drawn] and report it.
## Result 0.01
